Biological target: T1, Human CD3eg linker (human)
T1 construct: single-chain construct; also called recombinant human CD3
T1 chain: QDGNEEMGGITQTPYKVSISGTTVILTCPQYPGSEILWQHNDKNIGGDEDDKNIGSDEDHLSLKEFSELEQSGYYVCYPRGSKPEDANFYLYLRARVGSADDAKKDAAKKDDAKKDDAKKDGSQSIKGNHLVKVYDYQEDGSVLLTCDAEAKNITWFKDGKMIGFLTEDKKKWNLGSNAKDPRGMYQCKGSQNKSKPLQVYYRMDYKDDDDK
Test: SPR, vs unmutated H183/L072
result_type: fold change of affinity (fold)
A number alone suffices; assume fold.

Illustrative cases are given below, each with its answer.
dBBDu183H P61N/dBBDu072L (antibody, name in Kabat numbering, V domains shown) VH: QVQLVESGGGLVQPGRSLRLSCAASGFTFSNAWMHWVRQAPGKGLEWVAQIKDKGNAYAAYYANSVKGRFTISRDDSKNSIYLQMNSLKTEDTAVYYCHYVHYASASTVLPAFGVDAWGQGTTVTVSS VL: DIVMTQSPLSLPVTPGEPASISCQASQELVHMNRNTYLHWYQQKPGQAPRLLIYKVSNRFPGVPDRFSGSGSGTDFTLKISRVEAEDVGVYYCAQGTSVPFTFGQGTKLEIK = 1.5
dBBDu183H H93Y/dBBDu072L (antibody, name in Kabat numbering, V domains shown) VH: QVQLVESGGGLVQPGRSLRLSCAASGFTFSNAWMHWVRQAPGKGLEWVAQIKDKGNAYAAYYAPSVKGRFTISRDDSKNSIYLQMNSLKTEDTAVYYCYYVHYASASTVLPAFGVDAWGQGTTVTVSS VL: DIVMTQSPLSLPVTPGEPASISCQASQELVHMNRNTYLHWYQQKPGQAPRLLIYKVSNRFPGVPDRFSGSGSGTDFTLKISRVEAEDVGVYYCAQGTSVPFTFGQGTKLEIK = 0
dBBDu183H S62T/dBBDu072L (antibody, name in Kabat numbering, V domains shown) VH: QVQLVESGGGLVQPGRSLRLSCAASGFTFSNAWMHWVRQAPGKGLEWVAQIKDKGNAYAAYYAPTVKGRFTISRDDSKNSIYLQMNSLKTEDTAVYYCHYVHYASASTVLPAFGVDAWGQGTTVTVSS VL: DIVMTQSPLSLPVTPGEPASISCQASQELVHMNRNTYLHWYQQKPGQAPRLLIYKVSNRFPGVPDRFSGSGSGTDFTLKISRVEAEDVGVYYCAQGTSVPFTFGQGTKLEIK = 1.3
dBBDu183H A98S/dBBDu072L (antibody, name in Kabat numbering, V domains shown) VH: QVQLVESGGGLVQPGRSLRLSCAASGFTFSNAWMHWVRQAPGKGLEWVAQIKDKGNAYAAYYAPSVKGRFTISRDDSKNSIYLQMNSLKTEDTAVYYCHYVHYSSASTVLPAFGVDAWGQGTTVTVSS VL: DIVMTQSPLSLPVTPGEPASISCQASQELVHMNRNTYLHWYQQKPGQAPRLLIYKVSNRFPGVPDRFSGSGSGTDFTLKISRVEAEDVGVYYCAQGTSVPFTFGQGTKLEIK = 1

API: the following record is the query input.
Form field: reported fold change of affinity of dBBDu183H V95D/dBBDu072L (antibody, name in Kabat numbering, V domains shown) VH: QVQLVESGGGLVQPGRSLRLSCAASGFTFSNAWMHWVRQAPGKGLEWVAQIKDKGNAYAAYYAPSVKGRFTISRDDSKNSIYLQMNSLKTEDTAVYYCHYDHYASASTVLPAFGVDAWGQGTTVTVSS VL: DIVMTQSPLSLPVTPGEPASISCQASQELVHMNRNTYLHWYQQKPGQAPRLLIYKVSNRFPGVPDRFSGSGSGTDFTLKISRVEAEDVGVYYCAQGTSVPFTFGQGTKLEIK
0
